Entry source: patent US8546392B2

Assay: Test for metabolic stability, liver microsomes
Details: rat, liver microsomes, pH 7.4
assay metric: half-life (min)
Quick note: give the figure in min, leave out the unit.

Lookup: # return recorded half-life for entry Oc1cccc(-c2ccc3c(-c4cccnc4)c(O)ccc3c2)c1 [Compound 59]
Found: 13.6

###

Biological target: 17β-HSD1 (Homo sapiens (Human), UniProt P14061)
Sequence (P14061 whole entry): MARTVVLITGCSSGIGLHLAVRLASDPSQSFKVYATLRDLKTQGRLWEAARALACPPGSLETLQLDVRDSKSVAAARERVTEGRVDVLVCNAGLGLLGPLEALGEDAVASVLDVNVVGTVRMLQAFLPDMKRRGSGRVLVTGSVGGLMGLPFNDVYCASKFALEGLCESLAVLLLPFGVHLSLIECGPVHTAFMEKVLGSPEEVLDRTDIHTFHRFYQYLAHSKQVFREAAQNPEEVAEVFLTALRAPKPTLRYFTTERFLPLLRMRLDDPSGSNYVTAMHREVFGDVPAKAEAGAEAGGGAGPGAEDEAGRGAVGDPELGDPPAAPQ
Assay: 17β-HSD1 test assay (recombinant protein from Sf9 insect cells, 3H-estrone/NADPH)
Format: biochemical
Details: read-out: HSD1 100 nM (% inhibition); inhibitor 100 nM
Protocol: Recombinant protein obtained from Sf9 insect cells (0.1 μg/ml) is incubated with 20 mM KH2PO4, pH 7.4, 30 nM ^3H-estrone and 1 mM NADPH for 30 min at RT in the presence of the potential inhibitor in a concentration of 1 μM or 100 nM. The stock solutions of the compounds are prepared in DMSO (dimethylsulfoxide) so that the final concentration of DMSO in the sample is 1%. […] The radioactivity was measured by means of a Packard Flow Scintillation Analyzer. […]
Reported inhibition at 0.1 µM values for a set of compounds

Record excerpt, results attached:
compound | recorded measurement
Oc1cccc(-c2ccc3c(-c4ccc(N5CCOCC5)cc4)c(O)ccc3c2)c1 [Compound 65] | 31.9%
Oc1cc(-c2ccc3cc(O)ccc3c2)cc(-c2ccc3cc(O)ccc3c2)c1 [Compound 28] | < 10%

# input for lookup
Lookup: Give inhibition at 0.1 µM; test system 17β-HSD1 (Homo sapiens (Human), UniProt P14061); compound O=C(/C=C/c1c(O)ccc2cc(-c3cccc(O)c3)ccc12)Nc1ccccc1 [Compound 40]
Found: < 10%

###

Reported inhibition at 0.1 µM values for a set of compounds
Molecular target: 17β-HSD2 (Homo sapiens (Human), UniProt P37059)
Sequence (P37059 whole entry): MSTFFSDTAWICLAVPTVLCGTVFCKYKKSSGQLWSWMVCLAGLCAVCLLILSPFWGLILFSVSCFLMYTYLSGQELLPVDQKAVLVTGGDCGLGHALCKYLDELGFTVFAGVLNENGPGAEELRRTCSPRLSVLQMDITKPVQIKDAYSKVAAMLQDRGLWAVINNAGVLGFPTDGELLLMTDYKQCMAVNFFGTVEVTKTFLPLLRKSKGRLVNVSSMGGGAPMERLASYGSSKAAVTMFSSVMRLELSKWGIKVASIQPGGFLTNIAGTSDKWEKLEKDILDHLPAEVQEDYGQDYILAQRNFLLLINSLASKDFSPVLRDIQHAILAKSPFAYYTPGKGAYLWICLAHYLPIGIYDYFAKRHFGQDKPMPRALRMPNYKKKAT
Experiment: 17β-HSD2 test assay (recombinant protein from Sf9 insect cells, 3H-estradiol/NAD+)
Format: biochemical
Conditions: read-out: HSD2 100 nM (% inhibition); inhibitor 100 nM
Quick note: give the figure in %, leave out the unit.

test smiles | system | reading unit | inhibition at 0.1 µM
Oc1cccc(-c2ccc3c(-c4cccnc4)c(O)ccc3c2)c1 | 17β-HSD2 (Homo sapiens (Human), UniProt P37059) | % | 66.1

# input for lookup
Lookup: # return recorded inhibition at 0.1 µM for entry `Oc1cccc(-c2ccc3c(-c4ccncc4)c(O)ccc3c2)c1`
Found: 12.2

###

Assay: CaCo-2 assay (transport experiments)
Format: in vitro ADME
Settings: human, Caco-2; initial donor concentration 50 μM
Quick rule for you: Papp at 180 min, 50 μM at 9 ×10⁻⁶ cm/s or higher means Y, lower means N.

Recorded results for 3 molecules are shown here.
molecule | assigned label
O=C(Nc1ccccc1)c1c(O)ccc2cc(-c3cccc(O)c3)ccc12 [Compound 42] | N
N#Cc1cc(O)cc2ccc(-c3cccc(O)c3)cc12 [Compound 54] | N
Nc1cccc(-c2c(O)ccc3cc(-c4cccc(O)c4)ccc23)c1 [Compound 68] | Y

Next item in the queue.
Lookup: Assess whether reported Papp at 180 min, 50 μM for Oc1cccc(-c2ccc3c(-c4cccnc4)c(O)ccc3c2)c1 [Compound 59] sits at 9 ×10⁻⁶ cm/s or higher.
Found: Y

###

Biological target: 17β-HSD2 (Homo sapiens (Human), UniProt P37059)
Assay: 17β-HSD2 test assay (recombinant protein from Sf9 insect cells, 3H-estradiol/NAD+)
Type: biochemical
Conditions: read-out: HSD2 1 μM (% inhibition); inhibitor 1 μM
Reported inhibition at 1 µM values for a set of compounds
Quick note: give the figure in %, leave out the unit.

compound | assay metric | recorded measurement
Oc1cccc(-c2ccc3cc(O)ccc3c2)c1 [Compound 19, 6-(3-Hydroxyphenyl)-2-naphthol] | inhibition at 1 µM | 16.6
Oc1cccc(-c2ccc3c(Br)c(O)ccc3c2)c1 | inhibition at 1 µM | 69
CC(=O)Nc1cccc(-c2c(O)ccc3cc(-c4cccc(O)c4)ccc23)c1 | inhibition at 1 µM | 63.6

Lookup: # return recorded inhibition at 1 µM for entry Oc1cccc(-c2ccc3c(-c4ccccc4)c(O)ccc3c2)c1 [Compound 56, 6-(3-Hydroxyphenyl)-1-phenyl-2-naphthol]
Found: 77.2

###

Test system: CaCo-2 cells
Assay: CaCo-2 assay (transport experiments)
Format: in vitro ADME
Details: initial donor concentration 50 μM
Experimental: Four reference compounds (atenolol, testosterone, ketoprofene and erythromycin) were employed in each assay for evaluating the transport properties of the CaCo-2 cells. […] The absorptive and secretory permeabilities (Papp(a-b) and Papp(b-a)) were determined. […] The integrity of the monolayer was determined by means of TEER (transepithelial electric resistance) and the permeability for each assay was determined using Lucifer Yellow. […]
assay metric: final basolateral concentration [μM ± SD] (µM)
Quick note: give the figure in µM, leave out the unit.

Record excerpt, results attached:
compound | recorded measurement
Oc1cccc(-c2ccc3c(-c4cccnc4)c(O)ccc3c2)c1 | 11.0
Oc1cccc(-c2ccc3cc(O)ccc3c2)c1 [Compound 19, 6-(3-Hydroxyphenyl)-2-naphthol] | 6.5
Nc1cccc(-c2c(O)ccc3cc(-c4cccc(O)c4)ccc23)c1 | 13.9

Lookup: # return recorded final basolateral concentration [μM ± SD] for entry `O=C(Nc1ccccc1)c1c(O)ccc2cc(-c3cccc(O)c3)ccc12`
Found: 1.1

Lookup: # return recorded final basolateral concentration [μM ± SD] for entry `N#Cc1cc(O)cc2ccc(-c3cccc(O)c3)cc12`
Found: 3.7

###

Target: 17β-HSD1 (Homo sapiens (Human), UniProt P14061)
Assay: 17β-HSD1 test assay (recombinant protein from Sf9 insect cells, 3H-estrone/NADPH)
Assay type: biochemical
Conditions: read-out: HSD 1 μM (% inhibition of HSD1); inhibitor 1 μM
Quick rule for you: inhibition at 1 µM at 80% or higher means y, lower means n.

Recorded results for 5 compounds are shown here.
compound | assigned label
COc1ccc(-c2c(O)ccc3cc(-c4cccc(O)c4)ccc23)cn1 [Compound 62] | y
O=C(c1c(O)ccc2cc(-c3cccc(O)c3)ccc12)N1CCCCC1 [Compound 51] | n
Oc1ccc(-c2ccc3c(O)cccc3c2)cc1 [Compound 21, 6-(4-Hydroxyphenyl)-1-naphthol] | n
O=C(/C=C/c1cc(O)cc(-c2ccc3cc(O)ccc3c2)c1)Nc1ccccc1 [Compound 32] | n
Oc1cccc(-c2ccc3c(-c4ccccc4)c(O)ccc3c2)c1 [Compound 56, 6-(3-Hydroxyphenyl)-1-phenyl-2-naphthol] | y

Next item in the queue.
Lookup: Assess whether reported inhibition at 1 µM for O=C(Nc1ccccn1)c1c(O)ccc2cc(-c3cccc(O)c3)ccc12 [Compound 49] sits at 80% or higher.
Found: y

###

Molecular target: UniProt P05177
Sequence (P05177 whole entry): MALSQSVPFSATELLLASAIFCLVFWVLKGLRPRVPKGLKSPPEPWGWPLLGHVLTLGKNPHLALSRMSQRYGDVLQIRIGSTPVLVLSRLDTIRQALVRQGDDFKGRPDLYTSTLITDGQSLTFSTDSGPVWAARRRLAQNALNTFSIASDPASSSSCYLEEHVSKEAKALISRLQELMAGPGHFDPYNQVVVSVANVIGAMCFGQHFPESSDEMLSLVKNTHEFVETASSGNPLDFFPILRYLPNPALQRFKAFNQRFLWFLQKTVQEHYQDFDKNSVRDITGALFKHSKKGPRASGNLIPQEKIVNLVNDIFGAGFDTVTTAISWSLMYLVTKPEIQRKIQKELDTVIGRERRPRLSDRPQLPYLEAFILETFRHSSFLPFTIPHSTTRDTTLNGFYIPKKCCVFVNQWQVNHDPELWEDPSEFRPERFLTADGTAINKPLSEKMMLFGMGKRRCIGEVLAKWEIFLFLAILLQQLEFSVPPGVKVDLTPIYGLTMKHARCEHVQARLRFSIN
assay metric: IC50 (nM)
Quick note: give the figure in nM, leave out the unit.

test smiles | system | IC50 (nM)
N#Cc1cc(O)cc2ccc(-c3cccc(O)c3)cc12 | UniProt P05177 | 259

# input for lookup
Lookup: Give IC50; test system UniProt P05177; molecule `Oc1cccc(-c2ccc3c(-c4cccnc4)c(O)ccc3c2)c1`
Found: 14

###

Molecular target: UniProt:P11712
Sequence (P11712 whole entry): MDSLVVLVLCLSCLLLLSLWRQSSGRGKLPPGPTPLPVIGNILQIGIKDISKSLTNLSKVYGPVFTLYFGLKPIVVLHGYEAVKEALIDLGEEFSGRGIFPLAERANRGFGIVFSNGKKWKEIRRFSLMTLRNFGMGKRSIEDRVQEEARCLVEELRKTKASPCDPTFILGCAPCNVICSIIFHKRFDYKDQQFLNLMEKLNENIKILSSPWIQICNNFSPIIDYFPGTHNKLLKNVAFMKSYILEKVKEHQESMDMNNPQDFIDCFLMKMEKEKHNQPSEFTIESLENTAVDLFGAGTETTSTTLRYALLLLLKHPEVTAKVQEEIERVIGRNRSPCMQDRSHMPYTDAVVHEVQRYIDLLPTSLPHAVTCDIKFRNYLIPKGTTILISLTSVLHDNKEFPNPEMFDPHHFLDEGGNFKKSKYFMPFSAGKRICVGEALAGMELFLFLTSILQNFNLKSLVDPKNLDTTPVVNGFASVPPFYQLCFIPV
Experiment: P450 inhibition assay CYP2C9
assay metric: pIC50
Expect pIC50 as a plain number equal to -log10 of the molar concentration.

Lookup: # return recorded pIC50 for entry N#Cc1cc(O)cc2ccc(-c3cccc(O)c3)cc12 [Compound 54]
Found: 6.65

###

Target: CYP2B6 (Homo sapiens (Human), UniProt P20813)
Sequence (P20813 whole entry): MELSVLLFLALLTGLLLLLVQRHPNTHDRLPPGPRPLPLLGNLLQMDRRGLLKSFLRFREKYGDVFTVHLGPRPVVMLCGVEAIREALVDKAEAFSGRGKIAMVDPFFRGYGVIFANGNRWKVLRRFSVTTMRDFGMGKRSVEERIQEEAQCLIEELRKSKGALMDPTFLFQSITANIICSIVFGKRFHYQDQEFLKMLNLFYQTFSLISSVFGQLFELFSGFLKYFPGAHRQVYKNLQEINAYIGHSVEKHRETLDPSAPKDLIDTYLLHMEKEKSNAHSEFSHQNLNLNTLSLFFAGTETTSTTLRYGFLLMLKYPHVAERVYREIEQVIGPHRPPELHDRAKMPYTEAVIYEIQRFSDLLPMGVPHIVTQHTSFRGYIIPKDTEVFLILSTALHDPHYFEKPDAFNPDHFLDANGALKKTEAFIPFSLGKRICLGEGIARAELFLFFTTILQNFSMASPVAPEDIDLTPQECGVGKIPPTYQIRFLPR
Test: P450 inhibition assay CYP2B6
Conditions: read-out: IC50 (mean ± SD) [μM] CYP2B6
assay metric: IC50 (µM)
Quick note: give the figure in µM, leave out the unit.

Lookup: # return recorded IC50 for entry `Oc1cccc(-c2ccc3c(-c4cccnc4)c(O)ccc3c2)c1`
Found: 5.34

###

Test system: CaCo-2 cells
Assay: CaCo-2 assay (transport experiments)
Assay type: in vitro ADME
// returns false unless mass balance [% ± SD] is strictly below 30%, in which case true

molecule | assigned label
O=C(Nc1ccccc1)c1c(O)ccc2cc(-c3cccc(O)c3)ccc12 [Compound 42] | true

Lookup: Strictly below 30% in mass balance [% ± SD]? Nc1cccc(-c2c(O)ccc3cc(-c4cccc(O)c4)ccc23)c1 [Compound 68]
Found: false

Lookup: Strictly below 30% in mass balance [% ± SD]? Oc1cccc(-c2ccc3cc(O)ccc3c2)c1 [Compound 19, 6-(3-Hydroxyphenyl)-2-naphthol]
Found: false

###

Assay: Test for metabolic stability, liver microsomes
Conditions: rat, microsomes, pH 7.4
assay metric: half-life (min)
Quick note: give the figure in min, leave out the unit.

Lookup: # return recorded half-life for entry Oc1cccc(-c2ccc3cc(O)ccc3c2)c1 [Compound 19, 6-(3-Hydroxyphenyl)-2-naphthol]
Found: 12.6

###

Target: UniProt P14061
Experiment: 17β-HSD1 test assay (recombinant protein from Sf9 insect cells, 3H-estrone/NADPH)
Assay type: biochemical
Settings: read-out: HSD1 100 nM (% inhibition); inhibitor 100 nM
assay metric: inhibition at 0.1 µM

compound | inhibition at 0.1 µM
O=C(Nc1ccc(-c2ccc3cc(O)ccc3c2)cc1O)c1ccccc1 | < 10%
Oc1ccc2cc(-c3ccccc3)ccc2c1 | < 10%
Oc1ccc(-c2cnc3cc(O)ccc3c2)cc1 [Compound 15, 3-(4-Hydroxyphenyl)quinolin-7-ol] | < 10%
O=C(Nc1nccs1)c1c(O)ccc2cc(-c3cccc(O)c3)ccc12 | < 10%
CNC(=O)CCc1cc(O)cc(-c2ccc3cc(O)ccc3c2)c1 | < 10%
O=C(Nc1nccs1)c1cccc(-c2c(O)ccc3cc(-c4cccc(O)c4)ccc23)c1 | 66.4%
O=S(=O)(Nc1cccc(-c2c(O)ccc3cc(-c4cccc(O)c4)ccc23)c1)c1cccs1 | 71.7%

Lookup: Give inhibition at 0.1 µM; test system UniProt P14061; compound Oc1cccc(-c2ccc3cc(O)ccc3n2)c1 [Compound 12, 2-(3-Hydroxyphenyl)quinolin-6-ol]
Found: 24%
